System: Staphylococcus aureus 19C
Experiment: broth-dilution microtiter MIC test
Format: cell-based
Conditions: Staphylococcus aureus, 19C
observed property: MIC (µg/mL)

compound: CCC1OC(=O)CC(O)C(C)C(OC2OC(C)C(O)C(N(C)C)C2O)C(CC=O)CC(C)C(=O)C=CC(C)=CC1COC1OC(C)C(OC(=O)CC(C)C)C(OC(=O)CC(C)C)C1OC (centres unmarked)
observed property: MIC
unit: µg/mL
obs value: 6.25
//
compound: CCC1OC(=O)CC(O)C(C)C(OC2OC(C)C(O)C(N(C)C)C2OC(C)=O)C(CC=O)CC(C)C(=O)C=CC(C)=CC1COC1OC(C)C(OC(=O)Cc2ccccc2)C(O)C1OC (centres unmarked)
observed property: MIC
unit: µg/mL
obs value: 1.56
//
compound: CCC1OC(=O)CC(O)C(C)C(OC2OC(C)C(O)C(N(C)C)C2O)C(CC=O)CC(C)C(=O)C=CC(C)=CC1COC1OC(C)C(OC(=O)Cc2ccccc2)C(O)C1OC (centres unmarked)
observed property: MIC
unit: µg/mL
obs value: 6.25
//
compound: CCC1OC(=O)CC(O)C(C)C(OC2OC(C)C(O)C(N(C)C)C2O)C(CCOc2ccccc2)CC(C)C(=O)C=CC(C)=CC1COC1OC(C)C2OC(=O)OC2C1OC (centres unmarked)
observed property: MIC
unit: µg/mL
obs value: 0.78
//
compound: CCC1OC(=O)CC(O)C(C)C(OC2OC(C)C(O)C(N(C)C)C2OC(C)=O)C(CC=O)CC(C)C(=O)C=CC(C)=CC1COC1OC(C)C(OC(=O)COc2ccccc2)C(O)C1OC (centres unmarked)
observed property: MIC
unit: µg/mL
obs value: 0.78
//
compound: CCC1OC(=O)CC(O)C(C)C(OC2OC(C)C(OC3CC(C)(O)C(O)C(C)O3)C(N(C)C)C2OC(C)=O)C(CC=O)CC(C)C(=O)C=CC(C)=CC1COC1OC(C)C(OC(=O)CC(C)C)C(OC(=O)CC(C)C)C1OC (centres unmarked)
observed property: MIC
unit: µg/mL
obs value: 12.5
//
compound: CCC1OC(=O)CC(O)C(C)C(OC2OC(C)C(OC3CC(C)(O)C(O)C(C)O3)C(N(C)C)C2O)C(CC=O)CC(C)C(=O)C=CC(C)=CC1COC1OC(C)C2OC(=O)OC2C1OC (centres unmarked) [Compound 49, Macrocin-3'",4'"-Carbonate Derivative]
observed property: MIC
unit: µg/mL
obs value: 0.78
//
compound: CCC1OC(=O)CC(O)C(C)C(OC2OC(C)C(O)C(N(C)C)C2OC(C)=O)C(CC=O)CC(C)C(=O)C=CC(C)=CC1COC1OC(C)C(OC(C)=O)C(O)C1OC (centres unmarked)
observed property: MIC
unit: µg/mL
obs value: 3.12
